Could you please report measured IC50 for the items listed next?
- TEST SYSTEM: human PAR4 (Homo sapiens, UniProt Q96RI0)
- Sequence (Q96RI0 18-385): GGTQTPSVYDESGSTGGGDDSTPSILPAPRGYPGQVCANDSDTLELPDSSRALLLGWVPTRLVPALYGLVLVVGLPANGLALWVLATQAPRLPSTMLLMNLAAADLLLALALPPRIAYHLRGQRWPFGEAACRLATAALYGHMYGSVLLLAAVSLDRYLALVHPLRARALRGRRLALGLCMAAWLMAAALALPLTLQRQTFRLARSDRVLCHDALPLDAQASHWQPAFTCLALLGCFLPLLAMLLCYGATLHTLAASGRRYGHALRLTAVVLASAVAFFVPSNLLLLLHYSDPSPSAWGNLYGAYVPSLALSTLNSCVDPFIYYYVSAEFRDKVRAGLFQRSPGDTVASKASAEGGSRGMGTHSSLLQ
- MEASUREMENT DESCRIPTION: PAR4 FLIPR assay: antagonism of agonist-peptide-induced calcium mobilization in PAR4-expressing HEK293 cells
- EXPERIMENTAL PARAMETERS: H-Ala-Phe(4-F)-[…]NH2-induced intracellular calcium mobilization, 11-point curves
In your response, put the unit directly after the numeric value.

Solved entries:
COc1cnc2c(-c3nc4cc(F)c(O[C@@H](C)[C@@H](C)OC(=O)Nc5cnc(OC[C@@H](C)O)nc5)cc4s3)cc(Cl)cc2c1 = 3 nM
CCOc1cnc2c(-c3nc4cc(F)c(OC[C@@H](C)OC(=O)Nc5cnc(OCCO)nc5)nc4s3)cc(C)cc2n1 = 7.2 nM

Count: 3. Required value per item: IC50.
1. COc1cnc2c(-c3nc4c(C)cc(OCc5cnc(-c6ccccc6)[nH]5)cc4s3)cc(C)cc2n1
2. COCc1cnc2c(-c3nc4c(C)cc(OCCNS(=O)(=O)c5ccc(F)cc5)cc4s3)cc(Cl)cc2n1
3. COc1cc(C(O)Cc2ccccc2)c2nc(-c3cc(C)cc4nc(OC)cnc34)sc2c1 (centres unmarked)

Completion:
54 nM
1.6 nM
5.3 nM
